# Assay system: human factor Xa (Homo sapiens)
# Construct: 25 μl human factor Xa (Enzyme Research Laboratories, Inc; South Bend, Ind.); purchased Enzyme Research Laboratories, Inc; South Bend, Ind
# Experiment: Factor Xa chromogenic assay (substrate S-2765)
# Type: biochemical
# Conditions: inhibition constant for inhibition of factor Xa; IC50 corrected for substrate competition; 25° C., enzyme 0.5 nM, substrate 140 μM; read-out: Ki(FXa)
Quantity: Ki (µM)
Output spec: scalar in µM, unitless text.

# input Look up and state reported Ki for COc1ccc(C(=O)NCC2CCN(c3ccccn3)CC2)cc1OCCc1ccc(Cl)cc1Cl
# output 3.04

# input Look up and state reported Ki for O=C(c1ccc(CO)c(OCCc2ccc(Cl)cc2Cl)c1)N1CCN(Cc2cc[n+]([O-])cc2)CC1
# output 6.2

# input Look up and state reported Ki for COc1ccc(C(=O)NCCCN2CCCCC2)cc1OCCc1ccc(Cl)cc1Cl
# output 2.22

# input Look up and state reported Ki for COc1ccc(C(=O)NCCN2CCCCC2)cc1OCCc1ccc(Cl)cc1Cl
# output 4.22

====

# Assay system: human factor Xa (Homo sapiens, UniProt P00742)
# Construct: 25 μl human factor Xa (Enzyme Research Laboratories, Inc; South Bend, Ind.); purchased Enzyme Research Laboratories, Inc; South Bend, Ind
# Sequence (P00742 235-488 limits assumed): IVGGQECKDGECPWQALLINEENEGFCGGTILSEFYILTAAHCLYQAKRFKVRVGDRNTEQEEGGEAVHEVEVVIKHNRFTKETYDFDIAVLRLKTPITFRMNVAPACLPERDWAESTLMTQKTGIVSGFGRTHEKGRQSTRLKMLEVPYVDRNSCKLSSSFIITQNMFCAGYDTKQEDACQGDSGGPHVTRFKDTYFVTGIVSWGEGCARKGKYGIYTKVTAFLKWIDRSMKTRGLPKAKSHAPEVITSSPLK
# Sequence (P00742 41-179 partner limits assumed): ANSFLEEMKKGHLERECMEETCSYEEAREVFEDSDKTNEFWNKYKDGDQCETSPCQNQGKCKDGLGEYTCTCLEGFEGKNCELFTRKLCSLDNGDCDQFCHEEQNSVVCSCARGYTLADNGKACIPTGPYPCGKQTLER
# Experiment: Factor Xa chromogenic assay (substrate S-2765)
# Type: biochemical
# Conditions: read-out: Ki(FXa)
Label key: true (1) means Ki under 600 nM; false (0) means Ki of 600 nM or more.

Answered examples (3):
> print(dat)
                                smiles.data                              assay.system      group
1  COc1cc(C(=O)N2CCN(Cc3ccncc3)CC2)cc(OCCc2ccc(Cl)cc2Cl)c1Cl  human factor Xa (Homo sapiens, UniProt P00742)   true (1)
2  O=C(NCC1CCN(c2ccncc2)CC1)c1cc(OCCc2ccc(Cl)cc2Cl)cc(C(=O)NCC2CCN(c3ccncc3)CC2)c1  human factor Xa (Homo sapiens, UniProt P00742)   true (1)
3  Cc1ccc(C(=O)NCC2CCN(c3ccnc(Cl)n3)CC2)cc1OCCc1ccc(Cl)cc1Cl  human factor Xa (Homo sapiens, UniProt P00742)  false (0)

# input Criterion: Ki strictly below 600 nM. Is it met by COc1ccc(C(=O)NCC2CCN(c3ccncc3)CC2)cc1OCC1(c2ccc(Cl)cc2)CC1 ?
# output false (0)

# input Criterion: Ki strictly below 600 nM. Is it met by CCOc1cc(C(=O)N2CCN(Cc3ccncc3)CC2)cc(OCCc2ccc(Cl)cc2Cl)c1Br ?
# output true (1)

# input Criterion: Ki strictly below 600 nM. Is it met by COc1cccc(COc2cc(C(=O)NCC3CCN(c4ccncc4)CC3)ccc2C)c1 ?
# output false (0)

# input Criterion: Ki strictly below 600 nM. Is it met by COc1ccc(C(=O)N2CCN(CCN(C)C)CC2)cc1OCCc1ccc(Cl)cc1Cl ?
# output false (0)

====

# Assay system: human factor Xa (Homo sapiens)
# Construct: 25 μl human factor Xa (Enzyme Research Laboratories, Inc; South Bend, Ind.); purchased Enzyme Research Laboratories, Inc; South Bend, Ind
# Experiment: Factor Xa chromogenic assay (substrate S-2765)
# Format: biochemical
# Conditions: read-out: Ki(FXa)
Catalogue of compounds with associated Ki
Output spec: scalar in nM, unitless text.

Consider the worked cases shown below.
> print(dat)
                                smiles.data                    assay.system  unit.descriptor   val
1  COc1ccc(COc2cc(C(=O)NCC3CCN(c4ccncc4)CC3)ccc2C)cc1  human factor Xa (Homo sapiens)               nM  1340
2  COc1ccc(C(=O)NCC2CCN(c3ccncc3)CC2)cc1OCc1cc(-c2ccc(Cl)s2)on1  human factor Xa (Homo sapiens)               nM   188
3  O=C(NCC1CCN(c2cc[n+](O)cc2)CC1)c1ccc(Cl)c(OCCc2ccc(Cl)cc2)c1  human factor Xa (Homo sapiens)               nM   227
4  O=C(NCC1CCN(c2ccncc2)CC1)c1cccc(CNCc2ccc(Cl)cc2Cl)c1  human factor Xa (Homo sapiens)               nM   275
5  CCOc1cc(C(=O)N2CCN(Cc3ccncc3)CC2)cc(OCCc2ccc(Cl)cc2Cl)c1OCC  human factor Xa (Homo sapiens)               nM   226
6  Cc1ccc(C(=O)N2CCN(Cc3ccncc3)CC2)cc1OCCc1ccc(Cl)cc1Cl  human factor Xa (Homo sapiens)               nM   298

# input Look up and state reported Ki for COc1ccc(C(=O)N2CCN(Cc3ccc(F)cc3)CC2)cc1OCCc1ccc(Cl)cc1Cl
# output 3010

====

# Assay system: human factor Xa (Homo sapiens, UniProt P00742)
# Construct: 25 μl human factor Xa (Enzyme Research Laboratories, Inc; South Bend, Ind.); purchased Enzyme Research Laboratories, Inc; South Bend, Ind
# Experiment: Factor Xa chromogenic assay (substrate S-2765)
# Type: biochemical
# Conditions: read-out: Ki(FXa)
Catalogue of molecules with associated Ki
Output spec: scalar in nM, unitless text.

Consider the worked cases shown below.
> print(dat)
                                smiles.data   val
1  COc1ccc(C(=O)N2CCCN(CCCN3CCCC3)CC2)cc1OCCc1ccc(Cl)cc1Cl  4270
2  O=C(NCC1CCN(c2ccncc2)CC1)c1cc(OCCc2ccc(Cl)cc2Cl)c[n+]([O-])c1   636
3  COc1cc(C(=O)N2CCN(Cc3ccncc3)CC2)cc(OCCc2ccc(Cl)cc2Cl)c1Br    95

# input Write down measured Ki (human factor Xa (Homo sapiens, UniProt P00742)) for this molecule. O=C(NCC1CCN(c2ccncc2)CC1)c1cncc(OCCc2ccc(Cl)cc2Cl)c1
# output 70

# input Write down measured Ki (human factor Xa (Homo sapiens, UniProt P00742)) for this molecule. COc1cc(C(=O)NCC2CCN(c3ccnc(C)c3)CC2)cc(OCCc2ccc(Cl)cc2)c1Br
# output 65

# input Write down measured Ki (human factor Xa (Homo sapiens, UniProt P00742)) for this molecule. COc1ccc(C(=O)N2CCN(CCN3CCCC3)CC2)cc1OCCc1ccc(Cl)cc1Cl
# output 5000

# input Write down measured Ki (human factor Xa (Homo sapiens, UniProt P00742)) for this molecule. COc1ccc(C(=O)NCC2CCN(c3ccncc3)CC2)cc1NC(=O)Cc1ccc(Cl)cc1Cl
# output 298

# input Write down measured Ki (human factor Xa (Homo sapiens, UniProt P00742)) for this molecule. Cc1ccc(C(=O)NCC2CCN(c3ccncc3)CC2)cc1OCc1ccc(OC(F)(F)F)cc1
# output 2940

# input Write down measured Ki (human factor Xa (Homo sapiens, UniProt P00742)) for this molecule. COc1cc(C(=O)NCC2CCN(c3cc[n+](O)cc3)CC2)cc(OCCc2ccc(Cl)cc2Cl)c1Cl
# output 220

# input Write down measured Ki (human factor Xa (Homo sapiens, UniProt P00742)) for this molecule. O=C(c1ccc(Br)c(OCCc2ccc(Cl)cc2Cl)c1)N1CCN(Cc2ccncc2)CC1
# output 365

# input Write down measured Ki (human factor Xa (Homo sapiens, UniProt P00742)) for this molecule. O=C(O)c1cc(OCCc2ccc(Cl)cc2Cl)cc(C(=O)NCC2CCN(c3ccncc3)CC2)c1
# output 82

# input Write down measured Ki (human factor Xa (Homo sapiens, UniProt P00742)) for this molecule. COc1ccc(C(=O)NC2CCN(C3CCOCC3)CC2)cc1OCCc1ccc(Cl)cc1Cl
# output 25200

# input Write down measured Ki (human factor Xa (Homo sapiens, UniProt P00742)) for this molecule. COc1cc(C(=O)NCC2CCN(c3ccnc(C)c3)CC2)cc(OCCc2ccc(Cl)cc2Cl)c1Cl
# output 24

# input Write down measured Ki (human factor Xa (Homo sapiens, UniProt P00742)) for this molecule. O=C(NCC1CCN(c2ccncc2)CC1)c1cc(OCCc2ccc(Cl)cc2Cl)ccc1Cl
# output 241

# input Write down measured Ki (human factor Xa (Homo sapiens, UniProt P00742)) for this molecule. COc1ccc(C(=O)NC2CCN(C3CCCCC3)CC2)cc1OCCc1ccc(Cl)cc1Cl
# output 40900

# input Write down measured Ki (human factor Xa (Homo sapiens, UniProt P00742)) for this molecule. Cc1cc(N2CCC(CNC(=O)c3ccc(Cl)c(OCCc4ccc(Cl)cc4)c3)CC2)ccn1
# output 44

# input Write down measured Ki (human factor Xa (Homo sapiens, UniProt P00742)) for this molecule. O=C(c1ccc(Cl)c(OCCc2ccc(Cl)cc2Cl)c1)N1CCN(Cc2ccncc2)CC1
# output 312

====

# Assay system: human factor Xa (Homo sapiens)
# Construct: 25 μl human factor Xa (Enzyme Research Laboratories, Inc; South Bend, Ind.); purchased Enzyme Research Laboratories, Inc; South Bend, Ind
# Experiment: Factor Xa chromogenic assay (substrate S-2765);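 note: purified enzyme, compound preincubated with the enzyme for 10 min before substrate addition starts the reaction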
# Type: biochemical
# Conditions: inhibition constant for inhibition of factor Xa; IC50 corrected for substrate competition; 25° C., enzyme 0.5 nM, substrate 140 μM; read-out: Ki(FXa)
Catalogue of molecules with associated Ki
Output spec: scalar in µM, unitless text.

Consider the worked cases shown below.
> print(dat)
                                   molecule  unit.descriptor    val
1  COc1ccc(C(=O)N2CCN(CC(=O)N3CCCC3)CC2)cc1OCCc1ccc(Cl)cc1Cl [Example 14]               µM   2.18
2  Cc1ccc(C(=O)N2CCN(Cc3cc[n+]([O-])cc3)CC2)cc1OCCc1ccc(Cl)cc1Cl [Example 17]               µM  0.407
3  COc1ccc(C(=O)NCC2CCN(c3cc[n+]([O-])cc3)CC2)cc1OCCc1ccc(Cl)cc1Cl [Example 66]               µM   1.48

In the following, a different molecule is considered.
# input Look up and state reported Ki for COc1ccc(C(=O)NCC2CCN(C3CCCC3)CC2)cc1OCCc1ccc(Cl)cc1Cl [Example 54]
# output 6.52
